Would you kindly list pIC50 for each of these compounds?
- TARGET OR TEST SYSTEM: Substance-K receptor (Rattus norvegicus)
- Sequence (P16610 whole entry): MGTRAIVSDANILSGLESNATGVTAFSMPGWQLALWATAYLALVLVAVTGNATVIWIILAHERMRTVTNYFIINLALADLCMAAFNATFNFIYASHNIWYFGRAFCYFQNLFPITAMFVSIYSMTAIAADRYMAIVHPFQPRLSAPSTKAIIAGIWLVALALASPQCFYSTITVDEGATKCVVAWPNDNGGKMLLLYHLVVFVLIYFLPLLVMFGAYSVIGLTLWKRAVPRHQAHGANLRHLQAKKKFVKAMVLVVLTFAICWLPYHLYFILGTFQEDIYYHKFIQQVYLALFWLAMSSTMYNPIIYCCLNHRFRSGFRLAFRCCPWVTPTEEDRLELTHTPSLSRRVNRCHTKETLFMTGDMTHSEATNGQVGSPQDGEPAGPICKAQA
- ASSAY NOTES: Tested for binding affinity against rat NK-2 receptor
Give only the number. pIC50 is defined as minus log10 of concentration in molar units.

Which measured pIC50 belongs to CN(Cc1ccccc1)C(=O)[C@H](Cc1ccccc1)NC(=O)[C@@H](Cc1cn(C(=O)CCC(=O)O)c2ccccc12)NC(=O)C[C@@H]1NC(=O)[C@@H]2C3CCC(CC3)N2C1=O , tested on Substance-K receptor (Rattus norvegicus)?
6.41

Which measured pIC50 belongs to CN(Cc1ccccc1)C(=O)[C@H](Cc1ccccc1)NC(=O)[C@@H](Cc1cn(C(=O)OCCCCCCN)c2ccccc12)NC(=O)C[C@@H]1NC(=O)[C@@H]2C3CCC(CC3)N2C1=O , tested on Substance-K receptor (Rattus norvegicus)?
6.61

Which measured pIC50 belongs to CN(Cc1ccccc1)C(=O)[C@H](Cc1ccccc1)NC(=O)[C@@H](Cc1cn(C(=O)CCCCCCN)c2ccccc12)NC(=O)C[C@@H]1NC(=O)[C@@H]2C3CCC(CC3)N2C1=O , tested on Substance-K receptor (Rattus norvegicus)?
6.73

The reported numbers originate from ChEMBL document CHEMBL1126707.
